# System: K562 CRISPRi cells
# PROTOCOL DETAILS: Constant region variant library pooled growth screen, K562
# Format: cell-based, human
# MEASUREMENT CONDITIONS: sgRNA constant region variants; activity relative to the original, un-modified constant region cr995
Record 1.0 whenever Mean relative activity is at 0.06 or higher; record 0.0 when lower.

Example entries and their recorded answers appear below.
Query: Would you say cr847 (nucleic acid, listed as DNA, chemistry not fully specified) guide: GTTTAAGAGCTAAGCTGGAAACAGCATAGCAAGCTTAAATAAGGCTAGTCCGTTATCAACTTGAAAAAGTGGCACCCAGTGGGTGCT shows Mean relative activity at minimum 0.06?
Response: 0.0

Query: Would you say cr991 (nucleic acid, listed as DNA, chemistry not fully specified) guide: GTTTAAGAGCTAAGCTGGAAACAGCATAGCAAGTTTAAATAAGGCTAGTCCGATATCAACTTGACAAAGTGGCACCGAGTCGGTGCT shows Mean relative activity at minimum 0.06?
Response: 1.0

Query: Would you say cr426 (nucleic acid, listed as DNA, chemistry not fully specified) guide: GTTTAAGAGCTAAGCTGGAAACAGCATAGCAAATTTAAATAAGGCTAGTCCGCTATCAACTTGAAAAAGTGGCACCGAGTCGGTGCT shows Mean relative activity at minimum 0.06?
Response: 1.0

Query: Would you say cr083 (nucleic acid, listed as DNA, chemistry not fully specified) guide: GTGTGAGAGCTAAGCTGGAAACAGCATAGCAAGTTTAAATAAGGCTAGTCCGTTATCAACTTGAAAAAGTGGCACCGAGTCGGTGCT shows Mean relative activity at minimum 0.06?
Response: 0.0

Query: Would you say cr009 (nucleic acid, listed as DNA, chemistry not fully specified) guide: GTGTAAGAGCTAAGCTGGAAACAGCATAGCAAGTTTAAATAAGGCTAGTCCGTTATCAACTTGAAAAAGTGGCACCGAGTCGGTGCT shows Mean relative activity at minimum 0.06?
Response: 0.0

---
Query: Would you say cr925 (nucleic acid, listed as DNA, chemistry not fully specified) guide: GTTTAAGAGCTAAGCTGGAAACAGCATAGCAAGTTTAAATAAGGCTAGTCCGTTATCATCGAGAAATCGAGGCACCGAGTCGGTGCT shows Mean relative activity at minimum 0.06?
Response: 1.0
